Task for the reader: assign each of the following compounds its reported melting point.

Value lookup for melting point; key = `CCNC(=O)COc1c2cc(C(C)(C)C)cc1Cc1cc(C(C)(C)C)cc(c1O)Cc1cc(C(C)(C)C)cc(c1OCC(=O)NCC)Cc1cc(C(C)(C)C)cc(c1O)COC2`
138.9 to 141.2 °C

Value lookup for melting point; key = `CC(C)(C)c1cc2c(O)c(c1)Cc1cc(C(C)(C)C)cc3c1OCC(=O)NCCCNC(=O)COc1c(cc(C(C)(C)C)cc1Cc1cc(C(C)(C)C)cc(c1O)C3)COC2`
189.5 to 191.4 °C

Value lookup for melting point; key = `CC(C)NC(=O)COc1c2cc(C(C)(C)C)cc1Cc1cc(C(C)(C)C)cc(c1O)Cc1cc(C(C)(C)C)cc(c1OCC(=O)NC(C)C)Cc1cc(C(C)(C)C)cc(c1O)COC2`
133.3 to 135.7 °C

Value lookup for melting point; key = `CC(C)(C)c1cc2c(O)c(c1)Cc1cc(C(C)(C)C)cc(c1OCC(=O)NCc1ccccc1)Cc1cc(C(C)(C)C)cc(c1O)Cc1cc(C(C)(C)C)cc(c1OCC(=O)NCc1ccccc1)COC2`
183.7 to 186.4 °C

Value lookup for melting point; key = `CC(C)(C)c1cc2c(O)c(c1)Cc1cc(C(C)(C)C)cc3c1OCC(=O)NCCNC(=O)COc1c(cc(C(C)(C)C)cc1Cc1cc(C(C)(C)C)cc(c1O)C3)COC2`
204.8 to 206.3 °C

Value lookup for melting point; key = `CC(C)(C)c1cc2c(O)c(c1)Cc1cc(C(C)(C)C)cc(c1OCC(=O)NC1CCCC1)Cc1cc(C(C)(C)C)cc(c1O)Cc1cc(C(C)(C)C)cc(c1OCC(=O)NC1CCCC1)COC2`
145.9 to 148.2 °C

Value lookup for melting point; key = `CC(C)(C)c1cc2c(O)c(c1)Cc1cc(C(C)(C)C)cc(c1OCC(=O)NCCO)Cc1cc(C(C)(C)C)cc(c1O)Cc1cc(C(C)(C)C)cc(c1OCC(=O)NC1CCCC1)COC2`
138.3 to 140.5 °C

Value lookup for melting point; key = `CC(C)(C)c1cc2c(O)c(c1)Cc1cc(C(C)(C)C)cc(c1OCC(=O)NCCc1ccccc1)Cc1cc(C(C)(C)C)cc(c1O)Cc1cc(C(C)(C)C)cc(c1OCC(=O)NCCc1ccccc1)COC2`
114.6 to 115.9 °C

Value lookup for melting point; key = `CC(C)(C)c1cc2c(O)c(c1)Cc1cc(C(C)(C)C)cc(c1OCC(=O)NCCO)Cc1cc(C(C)(C)C)cc(c1O)Cc1cc(C(C)(C)C)cc(c1OCC(=O)NCCc1ccccc1)COC2`
120.7 to 123.3 °C

Value lookup for melting point; key = `CC(C)(C)c1cc2c(O)c(c1)Cc1cc(C(C)(C)C)cc(c1OCC(=O)NCCCCCCN)Cc1cc(C(C)(C)C)cc(c1O)Cc1cc(C(C)(C)C)cc(c1OCC(=O)NCCCCCCN)COC2`
123.3 to 125.9 °C

###

# System: A549 cells (human lung carcinoma cells)
# ASSAY_COMMENT: SRB cytotoxicity assay, A549 cells
# Type: cell-based
# CONDITION_SET: 10 μM, 72 h, SRB
REPORTED_PROPERTY: inhibition at 10 µM (%)
Express the result in % but write the number alone.

Fill in the recorded inhibition at 10 µM for this compound, with A549 cells (human lung carcinoma cells) as test system: `CC(C)(C)c1cc2c(O)c(c1)Cc1cc(C(C)(C)C)cc(c1OCC(=O)NCc1ccccc1)Cc1cc(C(C)(C)C)cc(c1O)Cc1cc(C(C)(C)C)cc(c1OCC(=O)NCc1ccccc1)COC2`
64

Fill in the recorded inhibition at 10 µM for this compound, with A549 cells (human lung carcinoma cells) as test system: `CC(C)(C)c1cc2c(O)c(c1)Cc1cc(C(C)(C)C)cc3c1OCC(=O)NCCCNC(=O)COc1c(cc(C(C)(C)C)cc1Cc1cc(C(C)(C)C)cc(c1O)C3)COC2`
63

Fill in the recorded inhibition at 10 µM for this compound, with A549 cells (human lung carcinoma cells) as test system: `CC(C)(C)c1cc2c(O)c(c1)Cc1cc(C(C)(C)C)cc(c1OCC(=O)NCCCCN)Cc1cc(C(C)(C)C)cc(c1O)Cc1cc(C(C)(C)C)cc(c1OCC(=O)NCCCCN)COC2`
42

Fill in the recorded inhibition at 10 µM for this compound, with A549 cells (human lung carcinoma cells) as test system: `CC(C)(C)c1cc2c(O)c(c1)Cc1cc(C(C)(C)C)cc(c1OCC(=O)N(CCO)CCO)Cc1cc(C(C)(C)C)cc(c1O)Cc1cc(C(C)(C)C)cc(c1OCC(=O)N(CCO)CCO)COC2`
66

Fill in the recorded inhibition at 10 µM for this compound, with A549 cells (human lung carcinoma cells) as test system: `CCNC(=O)COc1c2cc(C(C)(C)C)cc1Cc1cc(C(C)(C)C)cc(c1O)Cc1cc(C(C)(C)C)cc(c1OCC(=O)NCC)Cc1cc(C(C)(C)C)cc(c1O)COC2`
31
